Each entry below lists one item and its recorded apparent KD of K4 kissing-loop reporter value.
System: K4 kissing-loop RNA reporter;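 further: bound reporter read as fluorescence of individual clusters on recovered sequencing chips by microscopy, with normalized cluster intensities fitted with a binding model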
Test: apparent KD of K4 kissing-loop reporter; higher = weaker reporter binding
Conditions: Eterna round: R107; input ligand: tryptophan 2.4 mM
Kindly answer with a numeric value in nM, unit omitted.

Would you please look over these solved cases?
1) CUUAAGAUAUGAGUGAUGUUUAUGUCCGAAGGAGCGUGCGAAAGUACAGGUAGGUCGCGGAUGUGAGUGAUGUUCAUGUAAGCGA [KL-XArg-A13 #analogue] ... 106
2) CCUGCAGCUGUUACCGAGGGAUGCUACGGACGAGGACCGGUACGGCCGCCACUCGCCAGUGAUGUUGGUGAGGGAGGACGUUACU [KL-XTryp-A21] ... 107

Ask: Find the measured apparent KD of K4 kissing-loop reporter of UCCUAGGCUCGAAAGAGCCUAGGAUUUACUCAGGAUAUCCGGAAACGGAGAAGGGAGUAACUAGUGAUGUUAGGGAUUCCCUAUU and report it.
Result: 125

Ask: Find the measured apparent KD of K4 kissing-loop reporter of AAACGUUGGUCGGAUACCAGCUUGAUCGGAAAACGAUCUGCUGGAGUGAUGUUCCAAUAAAGCCCUUGGCAGCCGACCGACGAAA [MAT - Same State Theophlline B - Mod of Eli - D15] and report it.
Result: 747
